// data source = paper PMC9916441

protocol-description: Water solubility
Assay type: physicochemical
recorded-conditions: read-out: Classification (water solubility)
reported-endpoint: solubility

Measured solubility of Cc1ccc(/C=C/c2ccc(O)cc2)cc1 : < 100 µg/mL

====

protocol-description: PAMPA-GI permeability
Type: in vitro ADME
recorded-conditions: PAMPA; pH 7.4 (donor and acceptor), 16 h incubation; read-out: Permeability, Pe
reported-endpoint: Papp at 16 h, 500 µM (×10⁻⁶ cm/s)
I only need the number, in ×10⁻⁶ cm/s, no unit after it.

For this compound ( Cc1ccc(/C=C/c2ccc(O)cc2)cc1 ), measured Papp at 16 h, 500 µM is 2.59

====

protocol-description: PAMPA-GI permeability
Type: in vitro ADME
recorded-conditions: PAMPA; pH 6.5 (donor and acceptor), 16 h incubation; read-out: Permeability, Pe
Description: A PAMPA was used to evaluate the passive intestinal absorption of DF5. The system consisted in a 96-well, MultiScreen-IP PAMPA filter plate (donor plate) equipped with a PVDF membrane filter and a 96-well PTFE acceptor plate. The PVDF membrane was coated with 5 µL of a 2% w/v lecithin in n-dodecane solution. […] Each solution was analyzed using HPLC and the permeability (Pe, nm/s) was determined as previously reported.
reported-endpoint: Papp at 16 h, 500 µM (×10⁻⁶ cm/s)
// return numeric value only (unit: ×10⁻⁶ cm/s, not printed)

Sure, the documented Papp at 16 h, 500 µM for Cc1ccc(/C=C/c2ccc(O)cc2)cc1 [DF5] is 9

====

protocol-description: PAMPA-GI permeability
Assay type: in vitro ADME
recorded-conditions: PAMPA; pH 5 (donor and acceptor), 16 h incubation; read-out: Permeability, Pe
reported-endpoint: Papp at 16 h, 500 µM

Cc1ccc(/C=C/c2ccc(O)cc2)cc1 yielded Papp at 16 h, 500 µM of 6.02 ×10⁻⁶ cm/s

====

protocol-description: Water solubility
Assay type: physicochemical
recorded-conditions: read-out: Water Solubility
Procedure: The solubility was determined as previously described. The calculated LogP (cLogP) value was determined using ACD LogP software package, version 4.55 (Advanced Chemistry Development Inc., Toronto, ON, Canada).
reported-endpoint: solubility

Please fill in: solubility reported for Cc1ccc(/C=C/c2ccc(O)cc2)cc1 [DF5] = < 10 µg/mL
